- Tested on: 857933-349-R-J2-PDC complex spheroid viability;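 note: spheroids exposed to compounds for seven days before readout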
- assay-text: Anticancer human tumor 857933-349-R-J2-PDC patient-derived colon adenocarcinoma cell line growth inhibition [POLQ]
- settings: curve of first compound; second compound 0.316 µM
Below, each entry is listed alongside its reported IC50.

- compound: "CC1COCCN1c1cc(-c2ccnn2C)c2ccnc(-c3ccn[nH]3)c2n1 (stereo unspecified) + Nc1ccc(C#CCN(C(=O)Cc2ncc(C(F)(F)F)cc2C(F)(F)F)c2ccc(F)cc2)nn1"
  unit-label: "nM"
  relation-operator: "="
  IC50: 739
- compound: "C=CCn1c(=O)c2cnc(Nc3ccc(N4CCN(C)CC4)cc3)nc2n1-c1cccc(C(C)(C)O)n1 + Cc1cccc(N(C)C(=O)C2C(O)CCN2c2nc(C)cc(C(F)(F)F)c2C#N)c1"
  unit-label: "nM"
  relation-operator: ">"
  IC50: 1000
- compound: "O=c1[nH]cc(F)c(=O)[nH]1 + Cc1cccc(N(C)C(=O)C2C(O)CCN2c2nc(C)cc(C(F)(F)F)c2C#N)c1"
  unit-label: "nM"
  relation-operator: "="
  IC50: 3100
- compound: "O=C(c1cc(Cc2n[nH]c(=O)c3ccccc23)ccc1F)N1CCN(C(=O)C2CC2)CC1 + Cc1cccc(N(C)C(=O)C2C(O)CCN2c2nc(C)cc(C(F)(F)F)c2C#N)c1"
  unit-label: "nM"
  relation-operator: ">"
  IC50: 10000
- compound: "C=CCn1c(=O)c2cnc(Nc3ccc(N4CCN(C)CC4)cc3)nc2n1-c1cccc(C(C)(C)O)n1 + Nc1ccc(C#CCN(C(=O)Cc2ncc(C(F)(F)F)cc2C(F)(F)F)c2ccc(F)cc2)nn1"
  unit-label: "nM"
  relation-operator: ">"
  IC50: 1000
- compound: "Nc1ccn(C2OC(CO)C(O)C2(F)F)c(=O)n1 (stereo unspecified) + COC1C(OC(N)=O)C(O)C(Oc2ccc3c(O)c(NC(=O)c4ccc(O)c(CC=C(C)C)c4)c(=O)oc3c2C)OC1(C)C"
  unit-label: "nM"
  relation-operator: "="
  IC50: 148
